assay: Normal rat biodistribution; type: in vivo; settings: 2 min post-injection, i.v., male Wistar rats, Mean±SD n=3
Readout name: % ID Liver

CC(=NO)C(C)(C)NCCN(CCNC(=O)c1ccc(S(=O)(=O)NCCCCCN)cc1)CCNC(C)(C)C(C)=NO; 5.61 ± 0.23 % ID
CC(=NO)C(C)(C)NCC(C)(CNC(=O)C1CCC(CNC(=O)c2ccc(S(=O)(=O)NCCCCCN)cc2)CC1)CNC(C)(C)C(C)=NO (stereo not shown); 19.6 ± 2.16 % ID

# input Please give measured % ID Liver of the following entry: CC(CNCc1ccccc1O)(CNCc1ccccc1O)CNC(=O)c1ccc(S(=O)(=O)NCCCCCN)cc1
# output 13.6 ± 2.47 % ID

# input Please give measured % ID Liver of the following entry: CC(=NO)C(C)(C)NCC(C)(CNC(=O)c1ccc(S(=O)(=O)NCCCCCN)cc1)CNC(C)(C)C(C)=NO (stereo not shown)
# output 19.34 ± 0.8 % ID

----------
test: Normal rat biodistribution; format: in vivo; conditions: 60 min post-injection, i.v., male Wistar rats, Mean±SD n=3
Readout name: % ID Lung (% ID)
Entry rule: numbers only, all in % ID.

CC(=NO)C(C)(C)NCC(C)(CNC(=O)CCCCCN)CNC(C)(C)C(C)=NO (stereo not shown) [Compound 4]; 0.1
NCCCCCNS(=O)(=O)c1ccc(C(=O)NCCCNC(=O)c2ccc(NN)nc2)cc1 [Compound 24]; 0.18
CC(=NO)C(C)(C)NCC(C)(CNC(=O)c1ccc(S(=O)(=O)NCCCCCN)cc1)CNC(C)(C)C(C)=NO (stereo not shown) [Compound 3]; 0.07

# input Please give measured % ID Lung of the following entry: CC(=NO)C(C)(C)NCCN(CCNC(=O)c1ccc(S(=O)(=O)NCCCCCN)cc1)CCNC(C)(C)C(C)=NO [Compound 16]
# output 0.09

# input Please give measured % ID Lung of the following entry: CC(=NO)C(C)(C)NCC(C)(CNC(=O)C1CCC(CNC(=O)c2ccc(S(=O)(=O)NCCCCCN)cc2)CC1)CNC(C)(C)C(C)=NO (stereo not shown) [Compound 8]
# output 0.08

# input Please give measured % ID Lung of the following entry: CC(=NO)C(C)(C)NCCN(CCNC(=O)C1CCC(CNC(=O)c2ccc(S(=O)(=O)NCCCCCN)cc2)CC1)CCNC(C)(C)C(C)=NO (stereo not shown) [Compound 17]
# output 0.28

# input Please give measured % ID Lung of the following entry: CC(CNCc1ccccc1O)(CNCc1ccccc1O)CNC(=O)c1ccc(S(=O)(=O)NCCCCCN)cc1 [Compound 25]
# output 0.96

----------
Below, each of the molecules is paired with its reported % ID Heart value.
Experiment: Normal rat biodistribution
Format: in vivo
Details: 30 min post-injection, i.v., male Wistar rats, Mean±SD n=3
Method: The resolution of a clot image is dependant on the combination of rate of incorporation of the radiopharmaceutical and its blood/tissues clearance rate. For this reason the biodistribution of several compounds has been determined in rats. Male Wistar (100-150 g) rats were injected i.v. with 0.1-0.2 ml of radiolabelled tracer solution (8 MBq/ml) and dissected at different times post-injection. The % ID in each of the selected tissues was measured. […]

CC(=NO)C(C)(C)NCC(C)(CNC(=O)CCCCCN)CNC(C)(C)C(C)=NO (centres unmarked) [Compound 4]; 0.04 + 0.02 % ID
CC(=NO)C(C)(C)NCCN(CCNC(=O)C1CCC(CNC(=O)c2ccc(S(=O)(=O)NCCCCCN)cc2)CC1)CCNC(C)(C)C(C)=NO (centres unmarked) [Compound 17]; 0.17 + 0.04 % ID

# input Please give measured % ID Heart of the following entry: CC(=NO)C(C)(C)NCCN(CCNC(=O)c1ccc(S(=O)(=O)NCCCCCN)cc1)CCNC(C)(C)C(C)=NO [Compound 16]
# output 0.06 ± 0.01 % ID

# input Please give measured % ID Heart of the following entry: NCCCCCNS(=O)(=O)c1ccc(C(=O)NCCCNC(=O)c2ccc(NN)nc2)cc1 [Compound 24]
# output 0.13 + 0.03 % ID

# input Please give measured % ID Heart of the following entry: CC(CNCc1ccccc1O)(CNCc1ccccc1O)CNC(=O)c1ccc(S(=O)(=O)NCCCCCN)cc1 [Compound 25]
# output 0.1 + 0.03 % ID

----------
Biological target: human plasma clots (Homo sapiens)
Construct: Factor XIII is transformed into its active form Factor XIIIa by thrombin in the presence of calcium ions; from tissue; host or cells: human plasma, clotted in vitro with thrombin and calcium chloride
Sequence (P00488 39-732): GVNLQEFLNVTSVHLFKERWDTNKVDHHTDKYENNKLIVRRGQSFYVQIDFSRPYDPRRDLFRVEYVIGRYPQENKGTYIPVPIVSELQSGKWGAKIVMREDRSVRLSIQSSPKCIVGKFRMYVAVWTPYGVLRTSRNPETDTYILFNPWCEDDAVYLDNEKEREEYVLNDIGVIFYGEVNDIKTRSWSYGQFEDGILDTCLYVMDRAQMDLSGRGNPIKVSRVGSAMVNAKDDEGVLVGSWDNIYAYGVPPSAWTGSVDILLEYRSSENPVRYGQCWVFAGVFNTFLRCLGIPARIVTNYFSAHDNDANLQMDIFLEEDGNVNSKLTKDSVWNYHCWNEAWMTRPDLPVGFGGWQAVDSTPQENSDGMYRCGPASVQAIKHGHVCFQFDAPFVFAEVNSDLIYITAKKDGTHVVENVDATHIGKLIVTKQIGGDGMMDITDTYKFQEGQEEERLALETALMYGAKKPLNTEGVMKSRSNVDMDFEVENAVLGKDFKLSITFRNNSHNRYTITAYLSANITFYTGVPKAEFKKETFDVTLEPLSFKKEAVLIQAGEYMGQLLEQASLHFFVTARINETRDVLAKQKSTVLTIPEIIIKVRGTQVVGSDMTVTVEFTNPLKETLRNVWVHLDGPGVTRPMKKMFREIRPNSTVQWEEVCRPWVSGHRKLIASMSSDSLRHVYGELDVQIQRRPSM
Test: Incorporation into human plasma clots (in vitro plasma clot assay)
Format: biochemical
Details: % retained with thrombin − % retained no thrombin
The label depends only on % specific uptake*: Criterion met if it is at least 5%, Criterion not met if it is smaller.

# input Is it the case that CC(=NO)C(C)(C)NCC(C)(CN)CNC(C)(C)C(C)=NO (centres unmarked) has % specific uptake* reaching or exceeding 5%?
# output Criterion not met

# input Is it the case that CC(=NO)C(C)(C)NCC(C)(CNC(=O)C1CCC(CNC(=O)c2ccc(S(=O)(=O)NCCCCCN)cc2)CC1)CNC(C)(C)C(C)=NO (centres unmarked) has % specific uptake* reaching or exceeding 5%?
# output Criterion met

# input Is it the case that CC(=NO)C(C)(C)NCC(C)(CNC(=O)c1ccc(NC(=O)CCCCCN)cc1)CNC(C)(C)C(C)=NO (centres unmarked) has % specific uptake* reaching or exceeding 5%?
# output Criterion not met

# input Is it the case that CC(=NO)C(C)(C)NCCN(CCNC(=O)C1CCC(CNC(=O)c2ccc(S(=O)(=O)NCCCCCN)cc2)CC1)CCNC(C)(C)C(C)=NO (centres unmarked) has % specific uptake* reaching or exceeding 5%?
# output Criterion met

# input Is it the case that CC(=NO)C(C)(C)NCC(C)(CNC(=O)[C@@H](CO)NC(=O)[C@@H](CO)NC(=O)[C@@H](CO)NC(=O)c1ccc(S(=O)(=O)NCCCCCN)cc1)CNC(C)(C)C(C)=NO (some centres unmarked) has % specific uptake* reaching or exceeding 5%?
# output Criterion not met

# input Is it the case that CC(=NO)C(C)(C)NCC(C)(CNC(=O)c1ccc(S(=O)(=O)NCCSCCN)cc1)CNC(C)(C)C(C)=NO (centres unmarked) has % specific uptake* reaching or exceeding 5%?
# output Criterion met

----------
test: Normal rat biodistribution; format: in vivo; settings: 2 min post-injection, i.v., male Wistar rats, Mean±SD n=3
Readout name: % ID Muscle (% ID)
Entry rule: numbers only, all in % ID.

Example compounds with recorded % ID Muscle:
CC(=NO)C(C)(C)NCC(C)(CNC(=O)c1ccc(S(=O)(=O)NCCCCCN)cc1)CNC(C)(C)C(C)=NO (stereo not shown) [Compound 3]; 23.6
CC(=NO)C(C)(C)NCCN(CCNC(=O)C1CCC(CNC(=O)c2ccc(S(=O)(=O)NCCCCCN)cc2)CC1)CCNC(C)(C)C(C)=NO (stereo not shown) [Compound 17]; 25.9
CC(=NO)C(C)(C)NCCN(CCNC(=O)c1ccc(S(=O)(=O)NCCCCCN)cc1)CCNC(C)(C)C(C)=NO [Compound 16]; 32.9
CC(=NO)C(C)(C)NCC(C)(CNC(=O)C1CCC(CNC(=O)c2ccc(S(=O)(=O)NCCCCCN)cc2)CC1)CNC(C)(C)C(C)=NO (stereo not shown) [Compound 8]; 21.6
NCCCCCNS(=O)(=O)c1ccc(C(=O)NCCCNC(=O)c2ccc(NN)nc2)cc1 [Compound 24]; 28.5
CC(=NO)C(C)(C)NCC(C)(CNC(=O)CCCCCN)CNC(C)(C)C(C)=NO (stereo not shown) [Compound 4]; 22.6

Let us move to another entry and its % ID Muscle.
# input Please give measured % ID Muscle of the following entry: CC(CNCc1ccccc1O)(CNCc1ccccc1O)CNC(=O)c1ccc(S(=O)(=O)NCCCCCN)cc1 [Compound 25]
# output 25.7
